- system: bromodomain of BRD9 (GST-BRD9 aa 130-259) / H3 K9/14/18/23Ac(1-28) peptide (Homo sapiens, UniProt Q9H8M2)
- Construct: The protein corresponding to amino acids 130-259 that contains the bromodomain of BRD9
- Sequence (Q9H8M2 130-259): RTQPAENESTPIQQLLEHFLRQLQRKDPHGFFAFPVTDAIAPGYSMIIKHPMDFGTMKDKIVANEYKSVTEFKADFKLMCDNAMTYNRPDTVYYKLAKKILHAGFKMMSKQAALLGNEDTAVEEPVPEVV
- method_description: BRD9-H3 tetra-acetylated Peptide Inhibition AlphaScreen
Field: IC50. Provide a value for each of the molecules that follow.
Give just the number in nM; leave the unit off.

Data request: Tell me its IC50 given Cn1cc(-c2ccc(C(=O)N3CCNCC3)cc2)c2ncncc2c1=O as the entry.
Data returned: 589

Data request: Give IC50 for the following molecule: Cc1cc(-c2ccc(C(C)N(C)C)cc2)cn(C)c1=O (centres unmarked)
Data returned: 1430

Data request: Give IC50 for CCOc1cc(-c2cc(C)c(=O)n(C)c2)ccc1CN1CC[N+](C)(CC)CC1
Data returned: 502

Data request: Indicate the recorded IC50 value for this molecule: Cc1c(-c2ccc(C(=O)C3CCNCC3)cc2)cn(C)c(=O)c1C
Data returned: 740

Data request: Name the recorded IC50 of the molecule listed here: Cn1cc(-c2ccc(CN)cc2)c2ccccc2c1=O
Data returned: 1550
